assayed_target: T1, human TSLPR on Ba/F3-hTSLPR-hIL7Ra cells (human, UniProt Q9HC73 23-371)
T1 sequence (looked up): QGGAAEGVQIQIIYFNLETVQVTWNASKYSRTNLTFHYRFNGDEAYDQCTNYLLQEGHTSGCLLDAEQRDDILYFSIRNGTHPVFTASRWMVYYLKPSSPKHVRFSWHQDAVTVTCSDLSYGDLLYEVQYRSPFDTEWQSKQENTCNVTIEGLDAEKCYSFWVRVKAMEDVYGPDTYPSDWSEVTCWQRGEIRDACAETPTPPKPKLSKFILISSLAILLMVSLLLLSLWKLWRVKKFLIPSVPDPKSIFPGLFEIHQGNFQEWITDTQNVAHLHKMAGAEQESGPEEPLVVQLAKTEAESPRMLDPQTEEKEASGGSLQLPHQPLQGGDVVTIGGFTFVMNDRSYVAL
method_notes: cell-based or functional assay
Please respond with reported IC50 Assay III, Ba/F3-huTSLPR proliferation for every item in the list.
Give bare numbers, in µg/mL.

binder: mouse antibody 54A11 (antibody, mouse IgG2a, V domains shown, Mouse IgG2a/kappa from hybridoma; also called m54A11; LB55.54A11.3D6) VH: EVQLQQSGPELVKPRASVKISCKASGYSFTGYYIHWVKQSHVKSLEWIGRINPYNGATIYNPNFKDKASLTVDKSSSTAFMEVHSLTSEDSAVYYCARSYGYVNYFDYWGQGTTLTVSS VL: EIVLTQSPATLSVTPGDSVSLSCRASQSISNNLHWYHQKSHESPRLLIKFGFQSISGIPSRFSGSGSGTDFTLSINSVETEDFGMYFCQQTNSWLTFGAGTKLELKR
unit_tag: µg/mL
recorded_measurement: 0.191

response.value for mouse anti human TSLPR antibody 13H5 (antibody, mouse IgG1, V domains shown, Mouse IgG1/kappa purified from hybridoma supernatant; also called m13H5; LB55.13H5.2C3) VH: QVLLKQSGPSLVQPSQSLSITCTVSGFSLSRYGVHWVRQSPGKGLEWLGVIWRSGSTDYNAAFMSRLSITQDNSKSQVFFNMNSLQSDDSAIYYCAKKAFYVMDYWGQGTSVTVSS VL: DIQMTQTTSSLSASLGDRVTISCRASQDISIYLNWYQQKPDGTVKLLIYYTSRLHSGVPSRFSGSGSGTNFSLTITNLEEEDIATYFCQQGNTLPWTFGGGTKLEIKR (field: IC50 Assay III, Ba/F3-huTSLPR proliferation) = 0.0097
